Biological target: FL-CHK-1 (Homo sapiens)
Sequence (O14757 whole entry): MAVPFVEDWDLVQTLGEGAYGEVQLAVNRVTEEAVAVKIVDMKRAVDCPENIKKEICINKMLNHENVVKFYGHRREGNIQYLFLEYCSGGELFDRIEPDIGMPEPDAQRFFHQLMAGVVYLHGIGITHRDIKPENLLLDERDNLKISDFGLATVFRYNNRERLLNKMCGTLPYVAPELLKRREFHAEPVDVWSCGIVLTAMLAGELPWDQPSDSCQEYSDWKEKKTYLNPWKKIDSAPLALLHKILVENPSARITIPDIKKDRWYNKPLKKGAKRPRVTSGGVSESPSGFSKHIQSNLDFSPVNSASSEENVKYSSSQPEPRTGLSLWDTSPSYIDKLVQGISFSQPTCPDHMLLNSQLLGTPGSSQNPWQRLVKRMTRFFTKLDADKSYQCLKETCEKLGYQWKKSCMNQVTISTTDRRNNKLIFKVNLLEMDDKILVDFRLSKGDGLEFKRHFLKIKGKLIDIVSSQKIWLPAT
pKi: −log10 of the molar value. Where a name gives a salt, the structure may show the parent alone.

[
  {
    "MOLECULE": "Cc1ccc2cc(NC(=O)c3cccc(OCc4cncc5ccccc45)c3)ccc2n1 [Example K-3, hydrochloride]",
    "pKi": 4.59
  }
]

---

Test system: human umbilical vein endothelial cells (HUVEC)
Test: HUVEC proliferation assay (VEGF-stimulated, MTT)
Type: cell-based
Details: Homo sapiens, HUVEC; read-out: HUVEC IC50
pIC50: −log10 of the molar value. Where a name gives a salt, the structure may show the parent alone.
Please use true (1) whenever pIC50 is not below 7, and false (0) whenever it is.

[
  {
    "COMPOUND": "Cc1cc(NC(=O)c2cccc(CSc3cnccn3)c2)ccc1C(C)C",
    "ASSIGNED_CATEGORY": "false (0)"
  },
  {
    "COMPOUND": "Cc1ccc2cc(NC(=O)c3cccc(OCc4cncc5ccccc45)c3)ccc2n1 [Example K-3, hydrochloride]",
    "ASSIGNED_CATEGORY": "false (0)"
  },
  {
    "COMPOUND": "O=C(Nc1cc(C(F)(F)F)cc(C(F)(F)F)c1)c1cccc(CSc2ncnc3[nH]ncc23)c1",
    "ASSIGNED_CATEGORY": "false (0)"
  },
  {
    "COMPOUND": "CC(C)c1cccc(NC(=O)c2cccc(CSc3cnccn3)c2)c1",
    "ASSIGNED_CATEGORY": "false (0)"
  },
  {
    "COMPOUND": "Cc1ccc2cc(NC(=O)c3cccc(SCc4cc(Nc5ccccc5)n[nH]4)c3)ccc2n1",
    "ASSIGNED_CATEGORY": "false (0)"
  },
  {
    "COMPOUND": "Cc1ccc2cc(NC(=O)c3cccc(CCc4cncc5ccccc45)c3)ccc2n1",
    "ASSIGNED_CATEGORY": "false (0)"
  },
  {
    "COMPOUND": "O=C(Nc1cccc(CSc2ncnc3[nH]ncc23)c1)c1cc(C(F)(F)F)cc(C(F)(F)F)c1",
    "ASSIGNED_CATEGORY": "false (0)"
  },
  {
    "COMPOUND": "O=C(Nc1cc(Cl)c(N2CCOCC2)c(Cl)c1)c1ccc(F)c(OCc2cccnc2)c1",
    "ASSIGNED_CATEGORY": "true (1)"
  },
  {
    "COMPOUND": "O=C(Nc1ccc(N2CCNCC2)c(C(F)(F)F)c1)c1ccc(F)c(OCc2cnc3ccccc3c2)c1",
    "ASSIGNED_CATEGORY": "true (1)"
  },
  {
    "COMPOUND": "CNS(=O)(=O)c1ccc(Nc2cc(CCc3cccc(C(=O)Nc4ccc(C(C)C)c(C)c4)c3)[nH]n2)cc1",
    "ASSIGNED_CATEGORY": "true (1)"
  },
  {
    "COMPOUND": "COc1cc(/C=C/c2cc(CSc3cccc(C(=O)Nc4ccc5nc(C)ccc5c4)c3)[nH]n2)ccc1O",
    "ASSIGNED_CATEGORY": "false (0)"
  },
  {
    "COMPOUND": "COc1cc(NC(=O)c2cccc(SCc3cc(Nc4ccccc4)n[nH]3)c2)cc(OC)c1OC",
    "ASSIGNED_CATEGORY": "true (1)"
  },
  {
    "COMPOUND": "O=C(Nc1ccc(N2CCNCC2)c(C(F)(F)F)c1)c1ccc(F)c(OCc2cncc3ccccc23)c1",
    "ASSIGNED_CATEGORY": "true (1)"
  },
  {
    "COMPOUND": "CC1(C)CCC(C)(C)c2cc(NC(=O)c3cccc(OCc4cncc5ccccc45)c3)ccc21",
    "ASSIGNED_CATEGORY": "true (1)"
  },
  {
    "COMPOUND": "Cc1ccc2cc(NC(=O)c3cccc(SCc4cc(-c5ccccc5)n[nH]4)c3)ccc2n1",
    "ASSIGNED_CATEGORY": "false (0)"
  },
  {
    "COMPOUND": "Cc1c(Br)cc(NC(=O)c2cccc(CSc3cnccn3)c2)cc1Br",
    "ASSIGNED_CATEGORY": "false (0)"
  },
  {
    "COMPOUND": "Cc1cc(NC(=O)c2cccc(CSc3ncnc4[nH]ncc34)c2)ccc1C(C)C",
    "ASSIGNED_CATEGORY": "false (0)"
  },
  {
    "COMPOUND": "O=C(Nc1ccc(N2CCOCC2)c(C(F)(F)F)c1)c1ccc(F)c(OCc2cnc3ccccc3c2)c1",
    "ASSIGNED_CATEGORY": "true (1)"
  },
  {
    "COMPOUND": "CC(=O)Nc1ccc(COc2cccc(C(=O)Nc3ccc(C(C)C)c(C)c3)c2)cn1",
    "ASSIGNED_CATEGORY": "false (0)"
  },
  {
    "COMPOUND": "Cc1cc(NC(=O)c2ccc(Cl)c(OCc3cncc4ccccc34)c2)ccc1C(C)C",
    "ASSIGNED_CATEGORY": "true (1)"
  },
  {
    "COMPOUND": "O=C(Nc1cc(Cl)c(N2CCCC2)c(Cl)c1)c1ccc(F)c(OCc2cccnc2)c1",
    "ASSIGNED_CATEGORY": "true (1)"
  },
  {
    "COMPOUND": "O=C(Nc1ccc(N2CCCC2)c(C(F)(F)F)c1)c1cccc(CCc2cc(Nc3cccnc3)n[nH]2)c1",
    "ASSIGNED_CATEGORY": "true (1)"
  },
  {
    "COMPOUND": "Cc1cc(NC(=O)c2cccc(C3CC3c3cc(Nc4ccccc4)n[nH]3)c2)ccc1C(C)C (centres unmarked)",
    "ASSIGNED_CATEGORY": "true (1)"
  },
  {
    "COMPOUND": "Cc1cc(NC(=O)c2cc(CCc3cncc4ccccc34)c(F)cc2Cl)ccc1C(C)C",
    "ASSIGNED_CATEGORY": "false (0)"
  },
  {
    "COMPOUND": "COc1cc(NC(=O)c2ccc(F)c(OCc3cc(Nc4ccc(OC)nc4)n[nH]3)c2)cc(C(F)(F)F)c1",
    "ASSIGNED_CATEGORY": "true (1)"
  },
  {
    "COMPOUND": "COc1ccc(Nc2cc(CCc3cccc(C(=O)Nc4ccc(N5CCCC5)c(C(F)(F)F)c4)c3)[nH]n2)cn1",
    "ASSIGNED_CATEGORY": "true (1)"
  },
  {
    "COMPOUND": "COc1ccc(Nc2cc(CCc3cccc(C(=O)Nc4ccc(C(C)C)c(C)c4)c3)[nH]n2)cn1",
    "ASSIGNED_CATEGORY": "true (1)"
  }
]
